System: Caco-2
EXPERIMENT NOTES: Induction of apoptosis in human Caco2 cells assessed as increase in necrotic cell population at 10 uM after 24 hrs by Annexin V FITC staining based flow cytometry
CONDITION PARAMETERS: caco-2, 24 h
RECORDED ENDPOINT: Activity

These solved cases illustrate the format of a correct answer.
1) CN(CCO[N+](=O)[O-])C1(c2ccc(Oc3ccccc3)cc2)C(=O)NC(=O)NC1=O    Non-toxic
2) O=C1NC(=O)C(c2ccc(Oc3ccccc3)cc2)(N2CCC(CCO[N+](=O)[O-])CC2)C(=O)N1    Non-toxic
3) O=C1NC(=O)C(c2ccc(Oc3ccccc3)cc2)(N2CCCC(CO[N+](=O)[O-])C2)C(=O)N1 (stereo unspecified)    Non-toxic
4) O=C1NC(=O)C(c2ccc(Oc3ccccc3)cc2)(N(CCO[N+](=O)[O-])CCO[N+](=O)[O-])C(=O)N1    Non-toxic
5) O=C1NC(=O)C(c2ccc(Oc3ccccc3)cc2)(N2CCC(CO[N+](=O)[O-])CC2)C(=O)N1    Non-toxic

Okay, now this compound:
# input compound: `O=C1NC(=O)C(c2ccc(Oc3ccccc3)cc2)(N2CCN(CCO[N+](=O)[O-])CC2)C(=O)N1` ; wanted: its Activity
Non-toxic

* * *

TGT: UniProt:P14780
EXPERIMENT NOTES: Inhibition of p-aminophenylmercuric acetate stimulated human recombinant MMP-9 using (7-methoxycoumarin-4-yl)-acetyl-pro-Leu-Gly-Leu-(3-(2,4-dinitrophenyl)-L-2,3-diaminopropionyl)-Ala-Arg-NH2 as substrate after 45 mins by fluorogenic assay
pIC50: −log10 of the molar value.
Response key: Yes means pIC50 >= 7; No means pIC50 < 7.

Kindly determine if pIC50 recorded for `CN(CCO[N+](=O)[O-])C1(c2ccc(Oc3ccccc3)cc2)C(=O)NC(=O)NC1=O` is above or exactly 7.
Yes

What would you report for `O=C1NC(=O)C(c2ccc(Oc3ccccc3)cc2)(N2CCC(CO[N+](=O)[O-])CC2)C(=O)N1` ?
No

* * *

EXPERIMENT NOTES: Cytotoxicity against human Caco2 cells assessed as inhibition of cell viability at 100 uM after 24 hrs by MTT assay
Type: cell-based
CONDITION PARAMETERS: Caco-2 cells, read-out: INH
Could you please report measured cytotoxicity at 24 h, 100 µM for the items listed next?
Write down the value, and be sure its unit follows.

Entry under review: `O=C1NC(=O)C(c2ccc(Oc3ccccc3)cc2)(N2CCN(CCO)CC2)C(=O)N1` . Reported cytotoxicity at 24 h, 100 µM?
25%

# repeat for `CN(CCO[N+](=O)[O-])C1(c2ccc(Oc3ccccc3)cc2)C(=O)NC(=O)NC1=O`
28%

Similarly, `O=C1NC(=O)C(c2ccc(Oc3ccccc3)cc2)(N(CCO[N+](=O)[O-])CCO[N+](=O)[O-])C(=O)N1` ?
6%

* * *

System: Caco-2
EXPERIMENT NOTES: Induction of nitrite release in human Caco2 cells at 200 uM after 24 hrs by Griess assay
Assay type: functional, cell-based
The source made the active and inactive calls. The calls are words filed in the database; no cut-off is given here.
RECORDED ENDPOINT: Activity

Would you please look over these solved cases?
1. O=C1NC(=O)C(c2ccc(Oc3ccccc3)cc2)(N(CCO[N+](=O)[O-])CCO[N+](=O)[O-])C(=O)N1    Active
2. CN(CCO[N+](=O)[O-])C1(c2ccc(Oc3ccccc3)cc2)C(=O)NC(=O)NC1=O    Active
3. O=C1NC(=O)C(c2ccc(Oc3ccccc3)cc2)(N2CCC(CO[N+](=O)[O-])CC2)C(=O)N1    Active
4. O=C1NC(=O)C(c2ccc(Oc3ccccc3)cc2)(N2CCCC(CO[N+](=O)[O-])C2)C(=O)N1 (stereo unspecified)    Active
5. O=C1NC(=O)C(c2ccc(Oc3ccccc3)cc2)(N2CCN(CCO[N+](=O)[O-])CC2)C(=O)N1    Active

With those in mind, consider the next compound.
GET /values?readout=Activity&item= `O=C1NC(=O)C(c2ccc(Oc3ccccc3)cc2)(N2CCC(CCO[N+](=O)[O-])CC2)C(=O)N1`
Active

* * *

EXPERIMENT NOTES: Cytotoxicity against human HT1080 cells assessed as cell viability after 24 hrs by MTT assay
Assay type: cell-based
CONDITION PARAMETERS: HT-1080 cells
I'd appreciate it if you could supply CC50 at 24 h values for the items below.
Give a bare numeral; the unit µM is implied.

Request the reported CC50 at 24 h associated with `CN(CCO[N+](=O)[O-])C1(c2ccc(Oc3ccccc3)cc2)C(=O)NC(=O)NC1=O`
48.5

Could you do the same for `O=C1NC(=O)C(c2ccc(Oc3ccccc3)cc2)(N2CCC(CCO[N+](=O)[O-])CC2)C(=O)N1` , please?
78.7

Same question for `O=C1NC(=O)C(c2ccc(Oc3ccccc3)cc2)(N(CCO[N+](=O)[O-])CCO[N+](=O)[O-])C(=O)N1` please.
72

Param item: `O=C1NC(=O)C(c2ccc(Oc3ccccc3)cc2)(N2CCN(CCO[N+](=O)[O-])CC2)C(=O)N1`
12.8

* * *

EXPERIMENT NOTES: Cytotoxicity against human Caco2 cells assessed as cell viability after 24 hrs by MTT assay
Format: cell-based
CONDITION PARAMETERS: Caco-2 cells
RECORDED ENDPOINT: CC50 at 24 h

Fill blank: measured CC50 at 24 h of the compound `O=C1NC(=O)C(c2ccc(Oc3ccccc3)cc2)(N2CCC(CCO[N+](=O)[O-])CC2)C(=O)N1` is ____.
> 200 µM

Same lookup for `CN(CCO[N+](=O)[O-])C1(c2ccc(Oc3ccccc3)cc2)C(=O)NC(=O)NC1=O` , please.
> 100 µM

Same question for `O=C1NC(=O)C(c2ccc(Oc3ccccc3)cc2)(N2CCN(CCO)CC2)C(=O)N1` please.
> 100 µM

Further, for `O=C1NC(=O)C(c2ccc(Oc3ccccc3)cc2)(N(CCO[N+](=O)[O-])CCO[N+](=O)[O-])C(=O)N1` ?
> 100 µM

* * *

TGT: Matrix metalloproteinase-9 (Homo sapiens, UniProt P14780)
Sequence (P14780 whole entry): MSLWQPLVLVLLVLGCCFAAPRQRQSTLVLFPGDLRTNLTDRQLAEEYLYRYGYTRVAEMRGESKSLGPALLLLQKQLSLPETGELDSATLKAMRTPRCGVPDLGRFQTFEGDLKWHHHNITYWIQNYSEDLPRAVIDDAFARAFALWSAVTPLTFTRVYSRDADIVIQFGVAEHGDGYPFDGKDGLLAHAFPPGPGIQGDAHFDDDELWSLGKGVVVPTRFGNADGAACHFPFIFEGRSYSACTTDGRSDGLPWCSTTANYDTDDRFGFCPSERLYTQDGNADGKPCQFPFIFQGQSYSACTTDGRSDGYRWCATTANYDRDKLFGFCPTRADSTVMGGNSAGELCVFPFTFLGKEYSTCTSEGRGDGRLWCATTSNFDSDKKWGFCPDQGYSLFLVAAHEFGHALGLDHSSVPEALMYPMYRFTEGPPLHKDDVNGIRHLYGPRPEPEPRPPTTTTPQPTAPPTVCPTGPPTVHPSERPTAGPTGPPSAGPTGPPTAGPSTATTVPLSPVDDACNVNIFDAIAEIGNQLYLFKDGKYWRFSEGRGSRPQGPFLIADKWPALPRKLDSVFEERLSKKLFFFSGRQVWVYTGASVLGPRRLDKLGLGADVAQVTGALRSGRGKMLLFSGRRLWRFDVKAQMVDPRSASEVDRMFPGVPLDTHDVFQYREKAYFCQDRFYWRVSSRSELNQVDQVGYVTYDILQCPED
EXPERIMENT NOTES: Inhibition of p-aminophenylmercuric acetate stimulated human recombinant MMP-9 using (7-methoxycoumarin-4-yl)-acetyl-pro-Leu-Gly-Leu-(3-(2,4-dinitrophenyl)-L-2,3-diaminopropionyl)-Ala-Arg-NH2 as substrate after 45 mins by fluorogenic assay
Give IC50 for every item shown.
Give the figure together with its unit, number first.

// lookup IC50 for `O=C1NC(=O)C(c2ccc(Oc3ccccc3)cc2)(N2CCC(CO)CC2)C(=O)N1`
0.097 µM

Could you do the same for `CN(CCO)C1(c2ccc(Oc3ccccc3)cc2)C(=O)NC(=O)NC1=O` , please?
0.145 µM

Cool, now `O=C1NC(=O)C(c2ccc(Oc3ccccc3)cc2)(N2CCN(CCO[N+](=O)[O-])CC2)C(=O)N1`
0.092 µM

Another: `O=C1NC(=O)C(c2ccc(Oc3ccccc3)cc2)(N2CCC(CCO[N+](=O)[O-])CC2)C(=O)N1`
0.152 µM
